- TARGET DESC: CDK12/CycK (Homo sapiens)
- Sequence (Q9NYV4 with tags, fused parts or gaps): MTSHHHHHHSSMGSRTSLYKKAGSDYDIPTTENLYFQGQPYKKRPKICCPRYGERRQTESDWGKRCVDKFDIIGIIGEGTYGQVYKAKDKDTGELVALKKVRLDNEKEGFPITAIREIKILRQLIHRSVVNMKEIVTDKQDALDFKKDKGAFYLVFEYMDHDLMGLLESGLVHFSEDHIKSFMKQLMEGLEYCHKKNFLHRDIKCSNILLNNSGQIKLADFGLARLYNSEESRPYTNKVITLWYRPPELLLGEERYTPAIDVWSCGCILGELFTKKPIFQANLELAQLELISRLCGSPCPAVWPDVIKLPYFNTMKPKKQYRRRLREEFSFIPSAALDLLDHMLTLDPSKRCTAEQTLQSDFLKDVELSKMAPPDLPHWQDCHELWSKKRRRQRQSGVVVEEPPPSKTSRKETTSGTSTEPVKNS
- Sequence (O75909 1-300 partner limits assumed): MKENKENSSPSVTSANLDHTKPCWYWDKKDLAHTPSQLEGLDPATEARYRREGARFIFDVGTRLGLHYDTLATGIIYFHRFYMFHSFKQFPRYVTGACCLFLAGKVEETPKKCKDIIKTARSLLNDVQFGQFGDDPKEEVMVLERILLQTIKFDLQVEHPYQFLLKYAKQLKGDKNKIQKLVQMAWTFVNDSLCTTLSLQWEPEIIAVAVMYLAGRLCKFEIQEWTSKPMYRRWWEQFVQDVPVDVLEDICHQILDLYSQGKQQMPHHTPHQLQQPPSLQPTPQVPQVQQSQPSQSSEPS
- METHOD DESCRIPTION: CDK12/CycK high ATP kinase assay (TR-FRET, 2 mM ATP)
- Assay type: biochemical
- SETUP CONDITIONS: 2 mM ATP (high ATP); median; read-out: CDK12/CyclinK, 2 mM ATP (high ATP), IC50-[mol/l] (median)
- Procedure: In the context of the present invention, the term “IC50 CDK12 hATP” refers to the IC50 values obtained according to the assay described in this section (2.2) herein below, i.e. the IC50 values for the inhibition of CDK12 at high (2 mM) ATP. […]
What log10(IC50) was measured for each of the following?
On a log10 scale: recorded IC50, unit µM.

Solved cases (2 shown):
MOLECULE: CN1CCN(c2nc(NCc3nc4ccccc4[nH]3)n3ncc(C(F)(F)F)c3n2)CC1 [Example 297]
REPORTED RESULT: 1.24
//
MOLECULE: CN1CCN(c2nc(NCc3nc4c(F)cccc4[nH]3)n3ncc(C(F)(F)F)c3n2)CC1 [Example 293]
REPORTED RESULT: 0.77

Return reported log10(IC50) values for all items listed beneath this line.
1. FC(F)(F)Cc1cnn2c(NCc3nc4cc(Cl)ccc4[nH]3)nc(N3CCOCC3)nc12 [Example 299]
2. FC(F)(F)c1cnn2c(NCc3nc4cc(Cl)c(Cl)cc4[nH]3)nc(N3CCOCC3)nc12 [Example 332]
3. Cc1cc2nc(CNc3nc(N4CCN(C)CC4)nc4c(C5CC5)cnn34)[nH]c2cc1C [Example 312]

output:
1: 0.81; 2: -0.72; 3: 1.01

Where these numbers come from: patent US20230117034A1
